The origin of these recorded values is patent US20090208447A1.

tested-system: HLA-A*0201 loaded with the Carcinoembryonic antigen (CEA)-derived … peptide (biotinylated on the C-terminal biotinylation tag)
test: SPR (Biacore), Example 4
Documented koff across a set of binders

| binder | koff |
| --- | --- |
| SEQ ID NO 31 (receptor) MGHLPKPTLWAEPGSVITMDQPVTLRCQGGQETQEYRLYREKKTAPWITRIPQELVKKGQFPIPSITWEHAGRYRCYYGSQGGLRSESSDPLELVVTGVYIKPTLSAQPSPVVNSGGNVTLQCDSQVAFDGFILCKEGEDEHPQCLNSQPHARGSSRAIFSVGPVSPGRRWWYRCYAYDSNSPYEWSLPSDLLELLVL | ≤ 2 s⁻¹ |
| SEQ ID NO 75 (receptor) MHLPKPTLWAEPGSVITMDQPVTLRCQGGQETQEYRLYREKKTAPWITRIPQELVKKGQFPIPSITWEHAGRYRCYYGTQTSQWSASSDPLELVVTGVYIKPTLSAQPSPVVNSGGNVTLQCDSQVAFDGFILCKEGEDEHPQCLNSQPHARGSSRAIFSVGPVSPSRRWWYRCYAYDSNSPYEWSLPSDLLELDVDG | ≤ 2 s⁻¹ |
